Cited source: the supplement of paper PMC6555819

System: VDR:RXRa (NR concentration 270 nM, RXRa partner concentration 90 nM)
Test: PBM binding z-score (relative to random genomic background probes); higher = stronger binding; sequences stand for … in GC…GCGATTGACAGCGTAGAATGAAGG
Items are presented alongside their recorded PBM binding z-score.
Experimental Endpoint: PBM binding z-score

item_sequence=TCCTATAGGTAATACAGGTGAAAGTCGGCATCTA endpoint_result=0.718
item_sequence=AGAATGAGGTTATACGTAGATCAGGGTAGAAAGT endpoint_result=1.49
item_sequence=CGTCCAAGGTCAATGGTAGGTCAGTGAAAGCATT endpoint_result=4.89
item_sequence=GATACAGGGTCAGCTAGAGGCAAGAGTATGGAAA endpoint_result=2.63
item_sequence=TGAATGAGGTTATAAGATCAGGGCACGTTGCAAA endpoint_result=1.21
item_sequence=ACAGACACGTGAGTGAAGGTAACTCAGCTGGACG endpoint_result=-0.481
item_sequence=TAGCCTAGGTCAGATCGAGCCAGTATACGCTATA endpoint_result=0.0723
item_sequence=CACACTAGGTCACGAAAGGTCAAAGTCGAATGAC endpoint_result=7.02
item_sequence=ACTATTAGTTGACACGAGGGCAACCGATAGGTTG endpoint_result=1.4
item_sequence=TGTCAAAGTTCAAAGGTAAAGTAAGTATCCACAC endpoint_result=4.88
item_sequence=ATCTAAAGGTCGACGAGGTGAGTATACACCGTTT endpoint_result=5.21
item_sequence=GGTACAGGGTCAAGGCCAGAGTACGCGTATTGAT endpoint_result=4.52

====

System: PPARg:RXRa 90nM:30nM, anti-RXR (NR concentration 90 nM, RXRa partner concentration 30 nM)
Test: PBM binding z-score (relative to random genomic background probes); higher = stronger binding; sequences stand for … in GC…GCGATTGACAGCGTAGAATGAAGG
This listing pairs sequences with measured PBM binding z-score.
Experimental Endpoint: PBM binding z-score

item_sequence=CCTAGCAGGCCAATCTGGGACACTCAAGGCTTGA assayed_system="PPARg:RXRa 90nM:30nM, anti-RXR (NR concentration 90 nM, RXRa partner concentration 30 nM)" experimental_endpoint="PBM binding z-score" endpoint_result=-0.673
item_sequence=GCAGCCAGGTGAAACGCAGGTAACTCAGGGTGGC assayed_system="PPARg:RXRa 90nM:30nM, anti-RXR (NR concentration 90 nM, RXRa partner concentration 30 nM)" experimental_endpoint="PBM binding z-score" endpoint_result=-0.229
item_sequence=GCTGCTAGGTCAACTGATGGTCAGGTAAAGCTCG assayed_system="PPARg:RXRa 90nM:30nM, anti-RXR (NR concentration 90 nM, RXRa partner concentration 30 nM)" experimental_endpoint="PBM binding z-score" endpoint_result=1.9
item_sequence=TTACCAAGGTGAGCTGAGGTCGTCGATCCAACTC assayed_system="PPARg:RXRa 90nM:30nM, anti-RXR (NR concentration 90 nM, RXRa partner concentration 30 nM)" experimental_endpoint="PBM binding z-score" endpoint_result=0.372
item_sequence=TAGCCTAGGTCATTGAGCCAGTATAGTACGCATC assayed_system="PPARg:RXRa 90nM:30nM, anti-RXR (NR concentration 90 nM, RXRa partner concentration 30 nM)" experimental_endpoint="PBM binding z-score" endpoint_result=1.11
item_sequence=AGATGTAGGTTAAGGGTCATTCAGGTTGGTTCGC assayed_system="PPARg:RXRa 90nM:30nM, anti-RXR (NR concentration 90 nM, RXRa partner concentration 30 nM)" experimental_endpoint="PBM binding z-score" endpoint_result=10.7
item_sequence=TCTTGTTGGTCAAAGGTCACACACTCGAAATGCG assayed_system="PPARg:RXRa 90nM:30nM, anti-RXR (NR concentration 90 nM, RXRa partner concentration 30 nM)" experimental_endpoint="PBM binding z-score" endpoint_result=10
item_sequence=CCTTACGGGTCAAGTTTATAGCACGGGTGGTACG assayed_system="PPARg:RXRa 90nM:30nM, anti-RXR (NR concentration 90 nM, RXRa partner concentration 30 nM)" experimental_endpoint="PBM binding z-score" endpoint_result=3.06
item_sequence=CCTGCTGGGTCAATGGTCAGCTAAAGCAGCTCGC assayed_system="PPARg:RXRa 90nM:30nM, anti-RXR (NR concentration 90 nM, RXRa partner concentration 30 nM)" experimental_endpoint="PBM binding z-score" endpoint_result=3.72
item_sequence=TCTTCTAGGTCAACGATGGTCAGCTAATCTGCTA assayed_system="PPARg:RXRa 90nM:30nM, anti-RXR (NR concentration 90 nM, RXRa partner concentration 30 nM)" experimental_endpoint="PBM binding z-score" endpoint_result=5.64
item_sequence=CCTTACGGGTCACGAGGTTATAGCACGACGAGCG assayed_system="PPARg:RXRa 90nM:30nM, anti-RXR (NR concentration 90 nM, RXRa partner concentration 30 nM)" experimental_endpoint="PBM binding z-score" endpoint_result=5.31
item_sequence=GCTTTTAGTTGAAAGGGCAACCGAATGATTCTCG assayed_system="PPARg:RXRa 90nM:30nM, anti-RXR (NR concentration 90 nM, RXRa partner concentration 30 nM)" experimental_endpoint="PBM binding z-score" endpoint_result=3.97

====

Test system: RXRa DBDmut IVT, anti-RXR (DBD mutation: RXRa K156A/R161A, NR concentration 90 nM)
Experiment: PBM binding z-score (relative to random genomic background probes); higher = stronger binding; sequences stand for … in GC…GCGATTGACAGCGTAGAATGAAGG
Measured PBM binding z-score, listed per entry.
Experimental Endpoint: PBM binding z-score

item_sequence=GCGACTGGGTCATCAGCAGGTTACCATAACTTAA assayed_system="RXRa DBDmut IVT, anti-RXR (DBD mutation: RXRa K156A/R161A, NR concentration 90 nM)" endpoint_result=0.877
item_sequence=TCGAGTAGGTTAGTCGGGGCATTCATCCAACATA assayed_system="RXRa DBDmut IVT, anti-RXR (DBD mutation: RXRa K156A/R161A, NR concentration 90 nM)" endpoint_result=0.518
item_sequence=AGTCAAAGTTCACTAGGTAACGTATGATTCAGCT assayed_system="RXRa DBDmut IVT, anti-RXR (DBD mutation: RXRa K156A/R161A, NR concentration 90 nM)" endpoint_result=4.22
item_sequence=GCAGACAAGTGAAACGCAGGTAACTCAGGGTGGC assayed_system="RXRa DBDmut IVT, anti-RXR (DBD mutation: RXRa K156A/R161A, NR concentration 90 nM)" endpoint_result=-0.633
item_sequence=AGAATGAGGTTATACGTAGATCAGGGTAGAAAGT assayed_system="RXRa DBDmut IVT, anti-RXR (DBD mutation: RXRa K156A/R161A, NR concentration 90 nM)" endpoint_result=1.81
item_sequence=TCTTGTAGATCAACATGAGGTTAAGAAAGATCGA assayed_system="RXRa DBDmut IVT, anti-RXR (DBD mutation: RXRa K156A/R161A, NR concentration 90 nM)" endpoint_result=0.475
